tested on: ATP; experiment: switch fluorescence ratio, 500 uM ATP over buffer (Cy3 cluster intensity, sum of 5 cycles each) (fold (ratio)); higher = stronger signal-on switching upon ATP binding; sequences stand for … in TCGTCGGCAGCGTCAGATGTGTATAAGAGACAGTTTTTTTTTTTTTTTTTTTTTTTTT…TC; conditions: aptamer strand: ATP DNA aptamer (quencher-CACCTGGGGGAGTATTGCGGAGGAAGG + anchor), 100 nM annealed; ATP concentration: 500 uM;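 also: ATP exposure 15 min at 22 °C before imaging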
Property label: switch fluorescence ratio
Please respond with just the number, no unit label.

As a guide, the following entries are already answered.
{"Residue codes": "TTGAGAAATT", "switch fluorescence ratio": 1}
{"Residue codes": "GGATTAGGCG", "switch fluorescence ratio": 0.981}
{"Residue codes": "AGTGGGTATT", "switch fluorescence ratio": 1.01}
{"Residue codes": "TTTTTTCTAA", "switch fluorescence ratio": 0.973}

Request: Record lookup: for ATP, what switch fluorescence ratio belongs to `GTGGTTAAAA` ?
Result: 0.998

Request: Now the same for `TACTTAAAAC`
Result: 1.01

Request: Now the same for `GATGGGGCTC`
Result: 0.979

Request: Now the same for `GTGGGTGTGG`
Result: 1.02

###

test system: ATP; assay: switch fluorescence ratio, 500 uM ATP over buffer (Cy3 cluster intensity, sum of 5 cycles each) (fold (ratio)); higher = stronger signal-on switching upon ATP binding; sequences stand for … in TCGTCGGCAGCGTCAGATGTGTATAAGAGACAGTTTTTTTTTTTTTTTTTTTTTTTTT…TC; conditions: aptamer strand: ATP DNA aptamer (quencher-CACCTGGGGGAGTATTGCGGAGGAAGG + anchor), 100 nM annealed; ATP concentration: 500 uM;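 also: ATP exposure 15 min at 22 °C before imaging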
Catalogue of switch fluorescence ratio values
Please respond with just the number, no unit label.

As a guide, the following entries are already answered.
{"Residue codes": "GGGAGATTTT", "Assayed target": "ATP", "switch fluorescence ratio": 1.01}
{"Residue codes": "GACATGGGTT", "Assayed target": "ATP", "switch fluorescence ratio": 0.983}
{"Residue codes": "AGGGAACGGG", "Assayed target": "ATP", "switch fluorescence ratio": 1.01}
{"Residue codes": "TGGTAAATGG", "Assayed target": "ATP", "switch fluorescence ratio": 1.01}
{"Residue codes": "GAGAGTTGGT", "Assayed target": "ATP", "switch fluorescence ratio": 1.01}

Turning now to a further record.
Request: Using the record for `AAATAGGCAT` , report its switch fluorescence ratio.
Result: 1.02

###

tested on: ATP; experiment: switch fluorescence ratio, 500 uM ATP over buffer (Cy3 cluster intensity, sum of 5 cycles each) (fold (ratio)); higher = stronger signal-on switching upon ATP binding; sequences stand for … in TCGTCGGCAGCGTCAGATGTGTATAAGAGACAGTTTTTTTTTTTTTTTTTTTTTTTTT…TC; settings: aptamer strand: ATP DNA aptamer (quencher-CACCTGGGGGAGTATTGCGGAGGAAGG + anchor), 100 nM annealed; ATP concentration: 500 uM;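 also: ATP exposure 15 min at 22 °C before imaging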
Property label: switch fluorescence ratio
Please respond with just the number, no unit label.

As a guide, the following entries are already answered.
{"Residue codes": "TTATTGTGGA", "switch fluorescence ratio": 0.989}
{"Residue codes": "CCTCGGTGCG", "switch fluorescence ratio": 1.02}
{"Residue codes": "TGTAAGGATG", "switch fluorescence ratio": 0.996}
{"Residue codes": "ATCGAGTAAG", "switch fluorescence ratio": 1.02}
{"Residue codes": "CATTCAGTTC", "switch fluorescence ratio": 1}

Request: Record lookup: for ATP, what switch fluorescence ratio belongs to `GGCTTTGGTC` ?
Result: 1.02

Request: Now the same for `TGGGGGCTAC`
Result: 1

Request: Now the same for `GAGGGGCGTG`
Result: 1

Request: Now the same for `AGGGGTATGC`
Result: 0.979

Request: Now the same for `TTTAATTTGG`
Result: 0.982
